target desc: ROCK2 kinase (Homo sapiens)
Sequence (O75116 whole entry): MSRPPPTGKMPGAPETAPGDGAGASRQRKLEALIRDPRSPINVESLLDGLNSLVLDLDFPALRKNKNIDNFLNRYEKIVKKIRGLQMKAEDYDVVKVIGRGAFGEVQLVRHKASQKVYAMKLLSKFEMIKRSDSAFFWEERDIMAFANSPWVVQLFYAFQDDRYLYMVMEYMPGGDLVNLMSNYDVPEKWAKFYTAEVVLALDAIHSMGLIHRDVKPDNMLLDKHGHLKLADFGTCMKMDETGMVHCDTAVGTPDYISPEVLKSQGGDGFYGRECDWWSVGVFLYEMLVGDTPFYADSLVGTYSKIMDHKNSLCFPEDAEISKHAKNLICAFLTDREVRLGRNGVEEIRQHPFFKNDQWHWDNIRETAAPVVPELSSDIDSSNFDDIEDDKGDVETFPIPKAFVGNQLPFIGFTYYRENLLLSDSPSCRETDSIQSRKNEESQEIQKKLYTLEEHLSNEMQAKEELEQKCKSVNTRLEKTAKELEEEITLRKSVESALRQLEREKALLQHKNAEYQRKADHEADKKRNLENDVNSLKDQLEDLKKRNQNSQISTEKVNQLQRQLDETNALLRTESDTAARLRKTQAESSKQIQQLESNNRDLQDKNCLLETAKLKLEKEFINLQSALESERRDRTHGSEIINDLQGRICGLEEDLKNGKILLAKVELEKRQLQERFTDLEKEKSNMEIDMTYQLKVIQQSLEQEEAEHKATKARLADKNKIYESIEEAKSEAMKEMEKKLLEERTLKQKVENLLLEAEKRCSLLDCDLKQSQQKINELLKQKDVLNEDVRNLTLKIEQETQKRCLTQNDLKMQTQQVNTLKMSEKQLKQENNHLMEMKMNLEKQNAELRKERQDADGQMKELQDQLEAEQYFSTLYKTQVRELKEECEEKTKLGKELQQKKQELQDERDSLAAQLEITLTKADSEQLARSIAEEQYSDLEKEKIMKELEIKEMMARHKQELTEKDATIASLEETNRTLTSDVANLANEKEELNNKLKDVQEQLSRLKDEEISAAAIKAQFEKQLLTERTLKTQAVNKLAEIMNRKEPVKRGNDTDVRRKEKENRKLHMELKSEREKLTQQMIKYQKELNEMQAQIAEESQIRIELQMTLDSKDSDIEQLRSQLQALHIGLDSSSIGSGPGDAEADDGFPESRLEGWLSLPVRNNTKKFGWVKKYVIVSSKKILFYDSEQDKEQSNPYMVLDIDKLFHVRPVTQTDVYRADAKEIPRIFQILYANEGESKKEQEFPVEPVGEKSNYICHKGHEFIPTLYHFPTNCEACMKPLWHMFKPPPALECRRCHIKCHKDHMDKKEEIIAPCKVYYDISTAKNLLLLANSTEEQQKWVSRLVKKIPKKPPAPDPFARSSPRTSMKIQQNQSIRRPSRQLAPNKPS
measurement name: IC50

Observed IC50, ROCK2 kinase (Homo sapiens), `O=C(c1cc2c(n1C(F)F)CN(c1ncc(F)c(Nc3ccc(-c4cn[nH]c4)cc3)n1)CC2)N1CC(F)(F)C1` : > 4500 nM

Observed IC50, ROCK2 kinase (Homo sapiens), `O=C(c1cc2n(n1)CCN(c1nccc(Nc3ccc(-c4cn[nH]c4)cc3)n1)C2)N1CC(F)(F)C1` : > 4500 nM

Observed IC50, ROCK2 kinase (Homo sapiens), `Cn1c(C(=O)N2CC(F)(F)C2)cc2c1CN(c1nc(Nc3ccc(-c4cn[nH]c4)cc3)cc(C(F)(F)F)n1)CC2` : 50 to 500 nM

Observed IC50, ROCK2 kinase (Homo sapiens), `Cn1c(C(=O)N2CC(F)(F)C2)cc2c1CN(c1nccc(Nc3ccc4[nH]ncc4c3)n1)CC2` : 50 to 500 nM

Observed IC50, ROCK2 kinase (Homo sapiens), `CCc1nc(Nc2ccc(-c3cn[nH]c3)cc2)nc(N2CCc3cc(C(=O)N4CC(F)(F)C4)n(C)c3C2)n1` : 500 to 4500 nM

Next:
Observed IC50, ROCK2 kinase (Homo sapiens), `Cn1c(C(=O)N2CC(F)(F)C2)cc2c1CN(c1ncc(C#N)c(Nc3ccc(-c4cn[nH]c4)cc3)n1)CC2` : ≤ 50 nM

Observed IC50, ROCK2 kinase (Homo sapiens), `O=C(NC1CC(F)(F)C1)c1cn2c(n1)CN(c1nccc(Nc3ccc(-c4cn[nH]c4)cc3)n1)CC2` : ≤ 50 nM

====

Reported CC50 at 48 h values for a set of molecules
protocol description: In vitro cytotoxicity assay in HepG2 cells using the CCK-8 method
Format: cell-based
test parameters: human

Looking up `O=C(c1cc2c(n1C(F)F)CN(c1ncnc(Nc3ccc(-c4cn[nH]c4)cc3)n1)CC2)N1CC(F)(F)C1` , I see its CC50 at 48 h listed as > 100 µM

Looking up `Cn1c(C(=O)N2CC(C#N)C2)cc2c1CN(c1ncc(F)c(Nc3ccc(-c4cn[nH]c4)cc3)n1)CC2` , I see its CC50 at 48 h listed as > 100 µM

Looking up `Cn1c(C(=O)N2CC(F)(F)C2)cc2c1CN(c1ncc(F)c(Nc3ccc(-c4cn[nH]c4)cc3)n1)CC2` , I see its CC50 at 48 h listed as > 100 µM

Measured values drawn from patent US20230257376A1 for this set.
